# ΔTm at 150 µM per entry
TEST TARGET: AQ STING (G230A-R293Q) (Homo sapiens, UniProt Q86WV6, G230A/H232R/R293Q)
Construct: truncated human WT STING or AQ STING (amino acid residues 140-343); 8xHis (N, cleaved yes); SUMO (N, cleaved yes); made in house; host or cells: E. coli Rosetta-gami B (DE3)
Sequence (Q86WV6 140-343 G230A/H232R/R293Q): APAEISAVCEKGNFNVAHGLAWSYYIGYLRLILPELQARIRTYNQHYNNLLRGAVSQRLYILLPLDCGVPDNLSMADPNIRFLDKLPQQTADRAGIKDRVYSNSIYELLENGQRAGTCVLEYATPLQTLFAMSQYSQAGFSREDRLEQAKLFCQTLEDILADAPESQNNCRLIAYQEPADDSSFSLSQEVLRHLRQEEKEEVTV
PROTOCOL TEXT: Differential scanning fluorimetry (DSF) with AQ STING
Format: binding
TEST CONDITIONS: thermal shift, truncated human AQ STING 0.1 mg/ml, 150 μM CDN; read-out: DSF ΔTm AQ STING

COMPOUND	SCALE UNIT	ΔTm at 150 µM
Nc1nc2c(ncn2[C@@H]2C[C@@H]3COP(=O)(O)OC4C(F)[C@H](n5cnc6c(N)nc(F)nc65)O[C@@H]4COP(=O)(O)OC2C3O)c(=O)[nH]1 (some centres unmarked)	°C	13
Nc1nc(N)c2ncn([C@@H]3O[C@@H]4COP(=O)(O)OC5C(O)[C@@H](COP(=O)(O)OC4C3F)C[C@H]5n3cnc4c(=O)[nH]c(N)nc43)c2n1 (some centres unmarked)	°C	17
Nc1nc2c(ncn2[C@@H]2C[C@@H]3COP(=O)(O)OC4C(O)[C@H](n5cnc6c(=O)[nH]cnc65)O[C@@H]4COP(=O)(O)OC2C3O)c(=O)[nH]1 (some centres unmarked)	°C	13.3
Nc1ncnc2c1ccn2[C@@H]1O[C@@H]2COP(=O)(O)OC3C(O)[C@@H](COP(=O)(O)OC2C1O)C[C@H]3n1cnc2c(=O)[nH]cnc21 (some centres unmarked)	°C	14.6
Nc1nc2c(ncn2[C@@H]2C[C@@H]3COP(=O)(O)OC4C(O)[C@H](n5nnc6c(N)ncnc65)O[C@@H]4COP(=O)(O)OC2C3O)c(=O)[nH]1 (some centres unmarked)	°C	8.9

* * *

TEST TARGET: WT STING (Homo sapiens, UniProt Q86WV6, H232R)
PROTOCOL TEXT: Digitonin assay using 293T wtSTING-FL reporter cells
Assay type: cell-based
Set-up: host or cells: 293T (ATCC CRL-3216), stably transfected; also carries the 4xISRE firefly luciferase reporter
TEST CONDITIONS: 293T wtSTING-FL cells, digitonin buffer 30 min, then 5 h, ISRE firefly luciferase reporter; read-out: Digitonin assay EC50 WT STING
Sequence (Q86WV6 whole entry H232R): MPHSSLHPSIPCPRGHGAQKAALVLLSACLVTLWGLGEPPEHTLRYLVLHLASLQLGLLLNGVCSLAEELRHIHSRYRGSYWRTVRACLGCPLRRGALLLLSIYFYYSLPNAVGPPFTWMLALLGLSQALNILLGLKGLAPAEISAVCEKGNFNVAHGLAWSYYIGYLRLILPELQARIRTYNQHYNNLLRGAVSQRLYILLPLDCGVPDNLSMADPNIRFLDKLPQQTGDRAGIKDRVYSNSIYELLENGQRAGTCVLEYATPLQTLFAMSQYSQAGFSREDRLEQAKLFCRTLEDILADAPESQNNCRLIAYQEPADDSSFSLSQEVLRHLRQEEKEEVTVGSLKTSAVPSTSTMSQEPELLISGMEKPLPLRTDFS

MOLECULE	SCALE UNIT	EC50
Nc1nc2c(ncn2[C@@H]2C[C@@H]3COP(=O)(O)OC4C(O)[C@H](n5cnc6c(N)ncnc65)O[C@@H]4COP(=O)(O)OC2C3O)c(=O)[nH]1 (stereo partly drawn)	nM	100
Nc1ncnc2c1ncn2[C@@H]1O[C@@H]2COP(=O)(S)O[C@@H]3[C@H](F)[C@@H](COP(=O)(S)O[C@H]2[C@H]1F)C[C@H]3n1cnc2c(=O)[nH]cnc21 (single isomer, unassigned) [Compound 128d]	nM	20
Nc1ncnc2c1ccn2[C@@H]1O[C@@H]2COP(=O)(O)OC3C(O)[C@@H](COP(=O)(O)OC2C1O)C[C@H]3n1cnc2c(=O)[nH]cnc21 (stereo partly drawn)	nM	140
Nc1ncnc2c1ncn2[C@@H]1O[C@@H]2COP(=O)(O)O[C@@H]3[C@@H](F)[C@@H](COP(=O)(O)O[C@H]2[C@H]1O)C[C@H]3n1cnc2c(=O)[nH]cnc21	nM	50
CSc1nc(N)nc2c1ncn2[C@@H]1O[C@@H]2COP(=O)(O)OC3C(O)[C@@H](COP(=O)(O)OC2C1O)C[C@H]3n1cnc2c(=O)[nH]c(N)nc21 (stereo partly drawn)	nM	15100
Nc1nc2c(ncn2[C@@H]2C[C@@H]3COP(=O)(O)OC4C(N)[C@H](n5cnc6c(N)ncnc65)O[C@@H]4COP(=O)(O)OC2C3O)c(=O)[nH]1 (stereo partly drawn)	nM	130

* * *

We begin with a simple list: items and their reported ΔTm at 150 µM.
TEST TARGET: WT STING (Homo sapiens, UniProt Q86WV6, H232R)
PROTOCOL TEXT: Differential scanning fluorimetry (DSF) with WT STING
Type: binding
Design: truncated human WT STING or AQ STING (amino acid residues 140-343); 8xHis (N, cleaved yes); SUMO (N, cleaved yes); made in house; host or cells: E. coli Rosetta-gami B (DE3)
TEST CONDITIONS: thermal shift, truncated human WT STING 0.1 mg/ml, 150 μM CDN; read-out: DSF ΔTm WT STING
Sequence (Q86WV6 140-343 H232R): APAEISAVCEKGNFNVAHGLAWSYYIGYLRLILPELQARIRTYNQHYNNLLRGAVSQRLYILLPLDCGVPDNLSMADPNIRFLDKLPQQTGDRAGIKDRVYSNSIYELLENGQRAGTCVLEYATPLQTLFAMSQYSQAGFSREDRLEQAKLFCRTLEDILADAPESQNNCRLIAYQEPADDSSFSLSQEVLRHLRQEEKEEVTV
ASSAY ENDPOINT: ΔTm at 150 µM (°C)

COMPOUND	ASSAY ENDPOINT	SCALE UNIT	RESULT VALUE
Nc1ncnc2c1ncn2[C@@H]1O[C@@H]2COP(=O)(O)O[C@@H]3[C@@H](F)[C@@H](COP(=O)(O)O[C@H]2[C@H]1O)C[C@H]3n1cnc2c(=O)[nH]cnc21	ΔTm at 150 µM	°C	8.4
Nc1ncnc2c1c(I)cn2[C@@H]1O[C@@H]2COP(=O)(O)OC3C(O)[C@@H](COP(=O)(O)OC2C1O)C[C@H]3n1cnc2c(=O)[nH]cnc21 (stereo partly shown)	ΔTm at 150 µM	°C	5.6
Nc1nc2c(ncn2[C@@H]2C[C@@H]3COP(=O)(O)OC4C(O)[C@H](n5cnc6c(=O)[nH]cnc65)O[C@@H]4COP(=O)(O)OC2C3O)c(=O)[nH]1 (stereo partly shown)	ΔTm at 150 µM	°C	5
Nc1ncnc2c1ccn2[C@@H]1O[C@@H]2COP(=O)(O)OC3C(O)[C@@H](COP(=O)(O)OC2C1O)C[C@H]3n1cnc2c(=O)[nH]cnc21 (stereo partly shown)	ΔTm at 150 µM	°C	6.7
